Data origin: patent US8420682B2

# reported log10 IC50; entries follow
- measured_target: enzyme ACAT-1 (Homo sapiens)
- Construct: endogenous in cells
- Sequence (P35610 whole entry): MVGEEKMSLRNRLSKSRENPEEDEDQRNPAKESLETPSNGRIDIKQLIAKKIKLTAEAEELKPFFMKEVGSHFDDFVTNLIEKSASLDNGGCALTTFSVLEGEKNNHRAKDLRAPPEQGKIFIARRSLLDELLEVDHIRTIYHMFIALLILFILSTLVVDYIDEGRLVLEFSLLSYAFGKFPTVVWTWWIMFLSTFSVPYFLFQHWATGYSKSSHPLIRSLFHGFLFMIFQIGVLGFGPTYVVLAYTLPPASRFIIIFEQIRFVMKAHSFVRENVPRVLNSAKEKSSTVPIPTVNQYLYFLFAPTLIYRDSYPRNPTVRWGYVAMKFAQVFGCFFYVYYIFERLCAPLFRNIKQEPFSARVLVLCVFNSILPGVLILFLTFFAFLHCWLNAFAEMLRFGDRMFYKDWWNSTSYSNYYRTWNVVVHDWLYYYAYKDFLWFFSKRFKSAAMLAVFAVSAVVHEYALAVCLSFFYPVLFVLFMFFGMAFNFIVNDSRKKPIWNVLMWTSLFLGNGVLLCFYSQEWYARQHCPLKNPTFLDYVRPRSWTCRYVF
- test_method_notes: HepG2 NBD-cholesterol fluorescence test for inhibitory activity towards the enzyme ACAT-1 (SOAT-1)
- condition_label: HepG2 cells, NBD-cholesterol 1 μg/ml, incubation 6 hours at 37° C., fluorescence read (excitation 490 nm, emission 540 nm)
assay_endpoint: log10 IC50 (log10 of the value in nM)

- molecule: "CC(C)c1cccc(C(C)C)c1NC(=O)CN1C(=O)N(c2ccc(S(C)(=O)=O)cc2)C2(CCCCC2)C1=O [Compound 5]"
  value_reported: 1.49
- molecule: "CC(C)c1cccc(C(C)C)c1NC(=O)CN1C(=O)N(c2ccc(C#N)cc2)C2(CCCCC2)C1=O [Compound 2]"
  value_reported: 1.89
- molecule: "CCOC(=O)c1ccc(N2C(=O)N(CC(=O)Nc3c(C(C)C)cccc3C(C)C)C(=O)C23CCCCC3)cc1 [Compound 1]"
  value_reported: 0.38
- molecule: "Cc1ccc(N2C(=O)N(CC(=O)Nc3c(C(C)C)cccc3C(C)C)C(=O)C23CCCCC3)cc1C#N [Compound 3]"
  value_reported: 0.40
- molecule: "CSc1ccc(N2C(=O)N(CC(=O)Nc3c(C(C)C)cccc3C(C)C)C(=O)C23CCCCC3)cc1 [Compound 4]"
  value_reported: 0.18
